system: Setaria viridis (SETVI); experiment: Post-emergence herbicidal action, greenhouse pot trial; assay type: in vivo; settings: Setaria viridis, 504 h, 320 g/ha, visual rating after about 3 weeks, read-out: Post-emergence effect at 320 g/ha against SETVI in %
pest or weed control at 320 g/ha values for the molecules below.
Report as a plain number; the unit % is understood.

Here's what some known entries look like.
So what does the record say about pest or weed control at 320 g/ha for CCOC(=O)C(Oc1nn(-c2cnccn2)c(-c2ccc(F)nc2)c1Br)SC (stereo not shown) [Example I-17] ?
80

So what does the record say about pest or weed control at 320 g/ha for COC(=O)C(Oc1nn(-c2cc(F)ccc2F)c(-c2cncc(F)c2)c1Br)SC (stereo not shown) [Example I-07] ?
90

So what does the record say about pest or weed control at 320 g/ha for COC(=O)C(Oc1nn(-c2cc(F)ccc2F)c(-c2cncc(F)c2)c1C1CC1)SC (stereo not shown) [Example I-08] ?
90

Continuing:
So what does the record say about pest or weed control at 320 g/ha for COC(=O)C(Oc1nn(-c2ccccc2F)c(-c2ccc(F)nc2)c1I)SC (stereo not shown) [Example I-52] ?
90

So what does the record say about pest or weed control at 320 g/ha for CCOC(=O)C(Oc1nn(-c2ncccc2F)c(-c2ccc(F)nc2)c1Cl)SC (stereo not shown) [Example I-19] ?
90

So what does the record say about pest or weed control at 320 g/ha for COC(=O)C(Oc1nn(-c2ncccc2F)c(-c2cncc(F)c2)c1C1CC1)SC (stereo not shown) [Example I-66] ?
80

So what does the record say about pest or weed control at 320 g/ha for COC(=O)C(Oc1nn(-c2ccccc2F)c(-c2ccc(F)nc2)c1Br)SC (stereo not shown) [Example I-10] ?
90

So what does the record say about pest or weed control at 320 g/ha for CCOC(=O)C(Oc1nn(-c2ccccc2F)c(-c2ccc(F)nc2)c1C(F)(F)F)SC (stereo not shown) [Example I-46] ?
80

Value source: patent US20250026724A1
